- test: protein stability index of a GFP-peptide fusion (GPS, HEK-293T) (PSI 1-6); higher = more stable;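 note: 24-mer peptide tiles fused after GFP, lentivirally expressed, FACS-sorted into six equal bins by GFP/DsRed ratio, decoded by Illumina sequencing, PSI is the read-weighted mean bin number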
- stated.conditions: treatment: DMSO; c terminus: a fixed tail appended
measured.parameter: protein stability index
No unit in the answer, only the number.

Please look at this sequence and report its protein stability index: RLVESLSTQIRALTEQQEQLRGQL [RASAL3]
2.38

Please look at this sequence and report its protein stability index: LSESETGPMEEVERQVLPDPEVLE [PBXIP1]
5.6

Please look at this sequence and report its protein stability index: EHSHRSHHSLASSLRSHHTHPSYG [DVL3]
3.48

Please look at this sequence and report its protein stability index: SSDSANTTIEDEDAKARKQEIIKT [CAMK2B]
5.44

Please look at this sequence and report its protein stability index: LRRTGCAALRIANCKLFRLQLQQG [GAN]
2.33

Please look at this sequence and report its protein stability index: LMKHQTNISELKRTFLETSTDTAV [EPB41L3]
3.68

Please look at this sequence and report its protein stability index: RLRGKLRAEIENLHRTFDPHFLRV [MOG]
2.48

Please look at this sequence and report its protein stability index: SPYFHDQVLLKGMTSISLPSVMDP [ZBTB22]
3.03

Please look at this sequence and report its protein stability index: YSRGYRNRRSSRETREYAPPSRGH [RBMY1A1]
4.38

Please look at this sequence and report its protein stability index: NHDIRTANDGDYWRLLNPGEYVVT [CPXM2]
2.96

Please look at this sequence and report its protein stability index: RYQQSKAAALKCQLCEKAPKEATV [TRIM9]
3.85

Please look at this sequence and report its protein stability index: ASASCSHWRECLFYPALWPQLRIC [FBXO33]
2.44

Please look at this sequence and report its protein stability index: VIDKETIDLLAFTSVAELELLGLE [SDE2]
2.27

Please look at this sequence and report its protein stability index: CNVDLLKIIQLGLTFMNEQGEYPP [CNOT7]
2.96

Please look at this sequence and report its protein stability index: TKMWHPNIYETGDVCISILHPPVD [CDC34]
2.23

Please look at this sequence and report its protein stability index: ERTWPPPAMSPYWRTWMTITQSWQ [C22orf15]
2.31

Please look at this sequence and report its protein stability index: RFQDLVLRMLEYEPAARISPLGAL [DYRK1B]
2.67

Please look at this sequence and report its protein stability index: ALCENFPEEMATYLRYVRRLDFFE [CSNK1G1]
2.21

Please look at this sequence and report its protein stability index: MVLLIMKLDQLDQDIENALSTSSS [DLC1]
2.69

Please look at this sequence and report its protein stability index: QAPPVPGPPPGAPHTPQTPGQGGP [NR2F2]
5.22

---

- test: protein stability index of a GFP-peptide fusion (GPS, HEK-293T) (PSI 1-6); higher = more stable
- stated.conditions: treatment: MLN4924 1 uM, 8 h; c terminus: a fixed tail appended
Rule: Criterion met for protein stability index not less than 3, Criterion not met for anything less.

Given the entry ADVWSLGVMLYTLLVGRYPFHDSD [TRIB1] , answer whether its protein stability index meets or surpasses 3.
Criterion not met

Given the entry MAVPPGHGPFSGFPGPQEHTQVLP [DYRK1B] , answer whether its protein stability index meets or surpasses 3.
Criterion met

Given the entry SPLAADPACLGQPHTPGKPTSSCT [FOXJ1] , answer whether its protein stability index meets or surpasses 3.
Criterion met

Given the entry KLFFVDTGSKEKGLTKKRTKVQKK [NOP53] , answer whether its protein stability index meets or surpasses 3.
Criterion met

Given the entry FHVDSAAEYYRLHLEGYHGTAGDS [TNXB] , answer whether its protein stability index meets or surpasses 3.
Criterion met
